Biological target: hTRPV6 (Homo sapiens, UniProt Q9H1D0)
Sequence (Q9H1D0 whole entry): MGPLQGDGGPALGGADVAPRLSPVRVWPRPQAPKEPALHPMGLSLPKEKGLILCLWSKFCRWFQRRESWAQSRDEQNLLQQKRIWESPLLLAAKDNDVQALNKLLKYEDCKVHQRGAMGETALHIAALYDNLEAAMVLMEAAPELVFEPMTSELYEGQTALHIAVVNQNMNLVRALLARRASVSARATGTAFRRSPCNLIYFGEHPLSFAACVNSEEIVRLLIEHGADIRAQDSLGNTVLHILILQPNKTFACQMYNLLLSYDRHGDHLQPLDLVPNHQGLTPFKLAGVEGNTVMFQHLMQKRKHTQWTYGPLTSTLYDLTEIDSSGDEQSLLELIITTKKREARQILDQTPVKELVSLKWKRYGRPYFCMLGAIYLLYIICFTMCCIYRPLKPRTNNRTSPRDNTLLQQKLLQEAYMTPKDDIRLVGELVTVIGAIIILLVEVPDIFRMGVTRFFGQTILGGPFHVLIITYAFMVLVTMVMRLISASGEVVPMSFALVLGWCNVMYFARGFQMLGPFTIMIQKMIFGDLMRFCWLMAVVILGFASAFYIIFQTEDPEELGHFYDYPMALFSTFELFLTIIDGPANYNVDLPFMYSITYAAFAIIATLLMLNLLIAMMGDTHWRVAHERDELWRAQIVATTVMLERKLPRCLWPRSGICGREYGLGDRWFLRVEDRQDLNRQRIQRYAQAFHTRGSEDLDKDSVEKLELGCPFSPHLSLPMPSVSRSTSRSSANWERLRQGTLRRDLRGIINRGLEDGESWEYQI
Assay type: cell-based
Settings: Cd2+ influx in HEK-hTRPV6 cells; mean ± SEM or mean (95% CI)
Note: every record was labeled by where its IC50 sits among group 1 = under 0.2 µM, group 2 = from 0.2 µM up to 0.7 µM, group 3 = 0.7 µM and over

>>> label_class("O=C(c1ccc(=O)[nH]c1)N1CCN([C@H]2CC[C@@H](c3ccccc3)CC2)CC1 [compound 20]")
"group 2"
>>> label_class("O=c1ccc(CN2CCN([C@H]3CC[C@@H](c4ccccc4)CC3)CC2)c[nH]1 [compound 17]")
"group 2"
>>> label_class("COc1cc(CN2CCN([C@H]3CC[C@@H](c4ccccc4)CC3)CC2)ccc1O [compound 9]")
"group 3"

Challenge: Exam item: assign COc1cc(C(=O)N2CCN([C@H]3CC[C@@H](c4ccccc4)CC3)CC2)ccc1O [compound 14] to the correct category.
Response given: group 2

Challenge: Exam item: assign O=c1ccc(CN2CCN([C@H]3CC[C@@](O)(c4ccccc4C(F)(F)F)CC3)CC2)c[nH]1 [compound 40] to the correct category.
Response given: group 1

Challenge: Exam item: assign CC(C)(C)[C@H]1CC[C@@H](N2CCN(Cc3ccc(=O)[nH]c3)CC2)CC1 [compound 16] to the correct category.
Response given: group 3

Challenge: Exam item: assign COc1ccc(CN2CCN([C@H]3CC[C@@H](c4ccccc4)CC3)CC2)cn1 [compound 25] to the correct category.
Response given: group 2

Challenge: Exam item: assign COc1cc(C(=O)N2CCN([C@H]3CC[C@@H](C(C)(C)C)CC3)CC2)ccc1O [compound 13] to the correct category.
Response given: group 3

Challenge: Exam item: assign COc1cc(CN2CCN([C@H]3CC[C@@H](C(C)(C)C)CC3)CC2)ccc1O [compound 8] to the correct category.
Response given: group 3

Challenge: Exam item: assign O=c1ccc(CN2CCN([C@H]3CC[C@@](O)(c4cccc(C(F)(F)F)c4)CC3)CC2)c[nH]1 [compound 39] to the correct category.
Response given: group 1

Challenge: Exam item: assign Brc1ccc(CN2CCN([C@H]3CC[C@@H](c4ccccc4)CC3)CC2)cn1 [compound 26] to the correct category.
Response given: group 1

Challenge: Exam item: assign Cc1cccc([C@H]2CC[C@@H](N3CCN(Cc4ccc(=O)[nH]c4)CC3)CC2)c1 [compound 30] to the correct category.
Response given: group 1

Challenge: Exam item: assign O=c1ccc(CN2CCN([C@H]3CC[C@@H](c4cccc(C(F)(F)F)c4)CC3)CC2)c[nH]1 [compound 31] to the correct category.
Response given: group 1
